# Test system: MDA-MB-435
# assay method text: In vitro cytotoxicity (NCI protocol, SRB), MDA-MB-435 (melanoma panel)
# experimental context: Homo sapiens, MDA-MB-435, 48 h, Melanoma MDA-MB-435, 48 h exposure
// classify: if (GI50 < 20 nM) 1 else 0

molecule | assayed system | assigned class
COc1cc(/C=C\c2cc(OC)c(OC)c(OC)c2)cc(NS(=O)(=O)c2ccc(Cl)cc2)c1OC [13c] | MDA-MB-435 | 0
COc1ccc(S(=O)(=O)Nc2cc(/C=C\c3cc(OC)c(OC)c(OC)c3)cc(OC)c2OC)cc1 [13a] | MDA-MB-435 | 0
COc1ccc(S(=O)(=O)Nc2cc(/C=C\c3cc(OC)c(OC)c(OC)c3)ccc2OC)cc1 [12a] | MDA-MB-435 | 0
COc1ccc(S(=O)(=O)Nc2c(/C=C\c3cc(OC)c(OC)c(OC)c3)ccc(OC)c2O)cc1 [17a] | MDA-MB-435 | 1
COc1ccc(/C=C\c2cc(OC)c(OC)c(OC)c2)c(NS(=O)(=O)c2ccc(Cl)cc2)c1O [17c] | MDA-MB-435 | 0
